- Test system: UO-31
- Assay Name: NCI tumour cell line growth inhibition, 48 h
Active and inactive are the calls of the source. No stated cut-off is given here; in the data, active = GI50 up to about 1.1 µM and inactive = higher.
Exercise: for every item that follows, state its recorded GI50.

O=C1CN2C(Cl)(Cl)C2(c2ccccc2)c2cc(Cl)ccc2N1CC(F)(F)F (configuration not stated) : 36.3 µM (inactive)
Cc1cc2c(=O)c3ccc(Cl)cc3[nH]c2c(C(N)=O)c1C : > 100 µM (inactive)
O=C(CCc1ccc(O)c(O)c1)NCCc1cc(O)cc(O)c1 : 63.5 µM (inactive)
CC(=O)NC1C(OCc2ccccc2)OC(CO)C(O)C1OCC(=O)NC(C)C(=O)NC(CCC(=O)NCCCCCC(=O)Nc1ccc2c(c1)CN1C(=O)c3ccccc3C1=N2)C(N)=O (configuration not stated) : > 100 µM (inactive)
O=C(CSCC(=O)N/N=C\c1ccc(F)cc1F)N/N=C\c1ccc(F)cc1F : > 100 µM (inactive)

Could I get GI50 for every one of these entries?
1. C=C(CN(C)C)C(=O)c1ccc(C)cc1C
2. C=CC(C)(C)n1cc(C2=C(O)C(=O)C(c3cn(C(C)(C)C=C)c4ccccc34)=C(O)C2=O)c2ccccc21
3. COc1ccc(-c2cc(-c3cc(C)cc(Br)c3O)no2)cc1
4. O=C1O[B-](c2ccccc2)(c2ccccc2)[NH2+]C1CS (configuration not stated)
5. CN1CCN(c2ccc3[nH]c(-c4ccc5[nH]c(CCCc6ccc(N(CCCl)CCCl)cc6)nc5c4)nc3c2)CC1
6. Cc1cn([C@@H]2C[C@@H]2CO)c(=O)[nH]c1=O
7. COc1ccc(-n2sc3ncc(C)cc3c2=O)cc1

1: 12.2 µM (inactive); 2: 1.67 µM (inactive); 3: 12.5 µM (inactive); 4: 52.2 µM (inactive); 5: > 100 µM (inactive); 6: > 100 µM (inactive); 7: 17.6 µM (inactive)
